Molecular target: T1, recombinant human CD74 (C27S) (human, UniProt P04233 1-216)
T1 chain: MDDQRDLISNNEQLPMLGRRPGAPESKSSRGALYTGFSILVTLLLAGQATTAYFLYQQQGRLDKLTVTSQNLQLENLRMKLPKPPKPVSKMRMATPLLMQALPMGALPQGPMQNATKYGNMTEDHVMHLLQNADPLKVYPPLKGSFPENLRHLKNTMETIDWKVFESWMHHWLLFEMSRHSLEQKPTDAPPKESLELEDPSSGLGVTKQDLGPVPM
Test: competition ELISA: MIF coated, rhCD74 with serially diluted construct, bound rhCD74 detected
pIC50: −log10 of the molar value.
recorded.metric: pIC50

binder="DRhQ (other, Made in E. coli; also called DRα1-hMOG-35-55 with glutamine substitution; L50Q) MEVGWYRPPFSRVVHLYRNGKGGGGSLVPRGSGGGGIKEEHVIIQAEFYQNPDQSGEFMFDFDGDEIFHVDMAKKETVWRLEEFGRFASFEAQGALANIAVDKANLEIMTKRSNYTPITN" reported=6.53
binder="DRα1-mMOG-35-55 (other, also called DRα1 with mouse MOG-35-55 peptide) MEVGWYRSPFSRVVHLYRNGKGGGGSLVPRGSGGGGIKEEHVIIQAEFYLNPDQSGEFMFDFDGDEIFHVDMAKKETVWRLEEFGRFASFEAQGALANIAVDKANLEIMTKRSNYTPITN" reported=6.03
binder="DRα1-hMOG-35-55 (other, also called DRα1-human(h)MOG-35-55; DRα1 with human MOG-35-55 peptide) MEVGWYRPPFSRVVHLYRNGKGGGGSLVPRGSGGGGIKEEHVIIQAEFYLNPDQSGEFMFDFDGDEIFHVDMAKKETVWRLEEFGRFASFEAQGALANIAVDKANLEIMTKRSNYTPITN" reported=5.79
binder="DRmQ (other, also called DRα1-mMOG-35-55 with glutamine substitution) MEVGWYRSPFSRVVHLYRNGKGGGGSLVPRGSGGGGIKEEHVIIQAEFYQNPDQSGEFMFDFDGDEIFHVDMAKKETVWRLEEFGRFASFEAQGALANIAVDKANLEIMTKRSNYTPITN" reported=6.08

The values you see were collected from patent US20210380660A1.
